- system: EGFR L858R&T790M (Homo sapiens, UniProt P00533, L858R/T790M)
- Sequence (P00533 25-1210 T790M/L858R): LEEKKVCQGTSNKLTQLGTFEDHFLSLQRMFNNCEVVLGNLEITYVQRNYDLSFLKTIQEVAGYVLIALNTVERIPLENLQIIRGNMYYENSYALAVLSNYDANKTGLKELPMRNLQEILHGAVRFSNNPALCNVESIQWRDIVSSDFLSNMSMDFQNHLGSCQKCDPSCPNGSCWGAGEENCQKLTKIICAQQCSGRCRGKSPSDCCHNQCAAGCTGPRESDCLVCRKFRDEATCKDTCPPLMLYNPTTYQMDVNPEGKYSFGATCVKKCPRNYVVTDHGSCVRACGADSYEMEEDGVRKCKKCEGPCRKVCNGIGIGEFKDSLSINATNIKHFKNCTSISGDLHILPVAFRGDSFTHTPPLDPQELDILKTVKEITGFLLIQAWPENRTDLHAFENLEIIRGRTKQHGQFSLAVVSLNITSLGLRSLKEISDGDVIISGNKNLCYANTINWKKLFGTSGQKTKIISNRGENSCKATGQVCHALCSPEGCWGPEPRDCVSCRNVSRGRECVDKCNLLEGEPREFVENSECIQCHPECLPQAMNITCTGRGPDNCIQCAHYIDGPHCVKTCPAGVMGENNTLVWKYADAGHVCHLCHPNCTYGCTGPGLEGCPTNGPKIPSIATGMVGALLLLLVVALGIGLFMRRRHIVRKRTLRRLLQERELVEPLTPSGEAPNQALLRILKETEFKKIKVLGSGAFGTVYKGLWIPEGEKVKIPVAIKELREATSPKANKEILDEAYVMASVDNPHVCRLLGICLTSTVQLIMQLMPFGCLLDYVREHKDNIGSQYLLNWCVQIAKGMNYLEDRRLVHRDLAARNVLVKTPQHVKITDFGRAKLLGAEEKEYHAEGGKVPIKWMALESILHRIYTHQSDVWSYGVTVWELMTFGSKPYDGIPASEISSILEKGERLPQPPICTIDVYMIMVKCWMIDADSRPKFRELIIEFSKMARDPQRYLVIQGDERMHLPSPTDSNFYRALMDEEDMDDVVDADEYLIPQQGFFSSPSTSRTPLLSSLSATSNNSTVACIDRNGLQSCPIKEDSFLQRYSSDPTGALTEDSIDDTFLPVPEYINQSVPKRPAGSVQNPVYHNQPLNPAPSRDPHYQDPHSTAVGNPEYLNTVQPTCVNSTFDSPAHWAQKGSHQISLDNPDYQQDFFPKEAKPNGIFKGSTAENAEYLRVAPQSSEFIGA
- experiment summary: EGFR L858R and T790M cellular phosphorylation inhibition in NCI-H1975 (MSD)
- protocol conditions: NCI-H1975 cells, 4 h compound, p-EGFR(Y1068)/total EGFR; read-out: EGFR L858R and T790M mutation IC50
Recorded IC50 for the following compounds

Record C=CC(=O)Nc1cc(Nc2ncnc(Nc3cc(F)c(Cl)c(F)c3C(C)(C)O)n2)c(OC)cc1N(C)CCN(C)C , field IC50: 0.9 nM

Others:
Record C=CC(=O)Nc1cc(Nc2ncnc(Nc3cc(F)c(F)cc3C(C)(C)O)n2)c(OC)cc1N1CC[C@@H]1CN(C)C , field IC50: 0.9 nM

Record C=CC(=O)Nc1cc(Nc2ncnc(Nc3cc(Cl)c(F)cc3C(C)(C)O)n2)c(OC)cc1N1CCOC[C@@H]1CN(C)C , field IC50: 0.9 nM

---

- Tested on: NCI-H1975 EGFR L858R/T790M cells
- experiment summary: Cell proliferation, NCI-H1975 EGFR L858R/T790M (CellTiter-Glo, 72 h);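 further: viable cells quantified by luciferase-based ATP luminescence, proliferation expressed relative to DMSO-treated wells (100%) after subtracting a parallel plate read at the time of dosing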
- Type: cell-based
- protocol conditions: Homo sapiens, NCI-H1975, 72 h, NCI-H1975, 72 h proliferation; read-out: EGFR L858R and T790M mutation GI50
measurement type: GI50 (nM)
Just the number please, in nM, no unit attached.

Record C=CC(=O)Nc1cc(Nc2ncc(Cl)c(Nc3cc(Cl)c(F)cc3C(C)(C)O)n2)c(OC)cc1N(C)CCN(C)C [Compound 78] , field GI50: 1.4

Others:
Record C=CC(=O)Nc1cc(Nc2ncnc(Nc3ccccc3C3(O)COC3)n2)c(OC)cc1N(C)CCN(C)C [Compound 10] , field GI50: 76.3

Record C=CC(=O)Nc1cc(Nc2ncnc(Nc3cc(Cl)c(F)cc3C(C)(C)O)n2)c(OC)cc1N(C)CCN1CCCCC1 [Compound 26] , field GI50: 32.4

---

- Tested on: DB cells
- experiment summary: BTK (wt) cell proliferation, DB (CellTiter-Glo, 72 h);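 further: DB cells in 384-well plates given a dilution series of compound, viable cells read by ATP luminescence, growth expressed versus DMSO control after subtracting a time-zero plate reading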
- Assay type: cell-based
- protocol conditions: Homo sapiens, DB, DB cells, CellTiter-Glo, read-out: Non-BCR activated DB GI50
Structures can show the parent of a compound that is named as a salt.
measurement type: GI50

Observe how each entry below is paired with its result.
Record C=CC(=O)Nc1cc(Nc2ncnc(Nc3cc(F)c(F)cc3C(C)(C)O)n2)c(OC)cc1N1CCC[C@@H]1CN(C)C , field GI50: > 3000 nM

Record C=CC(=O)Nc1cc(Nc2nccc(Nc3cc(Cl)c(F)cc3C(C)(O)C(F)(F)F)n2)c(OC)cc1N1CC[C@@H](N(C)C)C1 (stereo partly shown) , field GI50: 1200 nM

Record C=CC(=O)Nc1cc(Nc2ncnc(Nc3cc4ccn(C)c4cc3C(C)(C)O)n2)c(OC)cc1N(C)CCN(C)C , field GI50: > 3000 nM

Record C=CC(=O)Nc1cc(Nc2ncnc(Nc3cc(Cl)c(F)cc3C(C)(C)O)n2)c(OC)cc1N1CC[C@@H]1CN(C)C , field GI50: > 3000 nM

Record C=CC(=O)Nc1cc(Nc2ncnc(Nc3cc(F)c(C4CC4)cc3C(C)(C)O)n2)c(OC)cc1N1CCC[C@@H]1CN(C)C , field GI50: 2580 nM

Others:
Record C=CC(=O)Nc1cc(Nc2ncnc(Nc3cc(Cl)c(F)cc3C3(O)CCC3)n2)c(OC)cc1N(C)CCN(C)C [Compound 72, formic acid salt] , field GI50: > 3000 nM

Record C=CC(=O)Nc1cc(Nc2ncnc(Nc3cc(Cl)c(F)cc3C(C)(O)CC)n2)c(OC)cc1N1CC[C@@H](N(C)C)C1 (single isomer, unassigned) , field GI50: > 3000 nM

---

Recorded IC50 for the following compounds
- system: EGFR L858R&T790M (Homo sapiens, UniProt P00533, L858R/T790M)
- experiment summary: EGFR L858R and T790M cellular phosphorylation inhibition in NCI-H1975 (MSD);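 further: phosphorylated and total EGFR detected by electrochemiluminescence, cells exposed to compound in medium containing 1% FBS at 37 °C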
- protocol conditions: NCI-H1975 cells, 4 h compound, p-EGFR(Y1068)/total EGFR; read-out: EGFR L858R and T790M mutation IC50
Just the number please, in pM, no unit attached.

Observe how each entry below is paired with its result.
Record C=CC(=O)Nc1cc(Nc2ncnc(Nc3cc(F)c(F)cc3C(C)(C)O)n2)c(OC)cc1N1CC[C@@H]2CN(C)C[C@@H]21 [Compound 17] , field IC50: 300

Record C=CC(=O)Nc1cc(Nc2nccc(Nc3cc(Cl)c(F)cc3C(C)(C)O)n2)c(OC)cc1N1C[C@@H](F)[C@@H](N(C)C)C1 [Compound 79] , field IC50: 1300

Record C=CC(=O)Nc1cc(Nc2ncnc(Nc3cc(Cl)c(F)cc3C(C)(O)CC)n2)c(OC)cc1N1CC[C@@H]1CN(C)C (some centres unmarked) [Compound 56] , field IC50: 1000

Record C=CC(=O)Nc1cc(Nc2ncnc(Nc3cc(F)c(Cl)cc3C(C)(C)O)n2)c(OC)cc1N1CC[C@@H]2CN(C)C[C@@H]21 [Compound 41] , field IC50: 800

Others:
Record C=CC(=O)Nc1cc(Nc2ncc(C(F)(F)F)c(Nc3cc(Cl)c(F)cc3C(C)(C)O)n2)c(OC)cc1N1CC[C@@H](N(C)C)C1 [Compound 84] , field IC50: 400
